Hello, the source for this data is ChEMBL document CHEMBL5036370, in case you need it.

Assay: Hemolytic activity against human erythrocytes at <=10 uM incubated for 1 hr by microplate reader assay
Format: ADME, tissue-based
Conditions: erythrocyte
property: Activity

CC(C)[C@@H]1NC(=O)[C@@H](Cc2c[nH]c3ccccc23)n2c1nc1ccccc1c2=O: Non-Toxic
CC(C)C[C@@H]1NC(=O)[C@@H](Cc2c[nH]c3ccccc23)n2c1nc1cc(Cl)c(Cl)cc1c2=O: Non-Toxic
CC(C)C[C@@H]1NC(=O)[C@@H](Cc2c[nH]c3ccccc23)n2c1nc1ccccc1c2=O: Non-Toxic
CCN(CC)CCCC(C)Nc1ccnc2cc(Cl)ccc12 (centres undefined): Non-Toxic

* * *

Below, each entry is listed with its recorded hemolysis at 1 h, up to 10 µM.
Experiment: Hemolytic activity against human erythrocytes at 0.04 to 10 uM incubated for 1 hr by microplate reader assay
Format: ADME, tissue-based, Erythrocyte
Settings: dose 0.04-10 µM, read-out: Activity

Task: hemolysis at 1 h, up to 10 µM lookup needed for CC(C)[C@@H]1NC(=O)[C@@H](Cc2c[nH]c3ccccc23)n2c1nc1ccccc1c2=O , thanks.
Result: < 6%

Task: Which hemolysis at 1 h, up to 10 µM value is on record for CC(C)C[C@@H]1NC(=O)[C@@H](Cc2c[nH]c3ccccc23)n2c1nc1ccccc1c2=O ?
Result: < 6%

Task: Quick check: hemolysis at 1 h, up to 10 µM of CC(C)C[C@@H]1NC(=O)[C@@H](Cc2c[nH]c3ccccc23)n2c1nc1cc(Cl)c(Cl)cc1c2=O ?
Result: < 6%

* * *

Experiment: Selectivity index, ratio of LD50 for cytotoxicity against Chinese hamster V79 cells to IC50 for antimalarial activity against CQ-sensitive Plasmodium falciparum 3D7
Type: toxicity, cell-based
Conditions: V79 cells versus Plasmodium falciparum 3D7, read-out: Ratio LD50/IC50
property: selectivity ratio
Please give the numeric answer without any surrounding text.

// worked examples, selectivity ratio included
CC(C)[C@@H]1NC(=O)[C@@H](Cc2c[nH]c3ccccc23)n2c1nc1ccccc1c2=O: 19
CC(C)C[C@@H]1NC(=O)[C@@H](Cc2c[nH]c3ccccc23)n2c1nc1ccccc1c2=O: 34

Task: Tell me the measured selectivity ratio of CC(C)C[C@@H]1NC(=O)[C@@H](Cc2c[nH]c3ccccc23)n2c1nc1cc(Cl)c(Cl)cc1c2=O , please.
Result: 70

* * *

Test system: Trypanosoma brucei
Experiment: Antitrypanosomal activity against bloodstream form of Trypanosoma brucei Lister 427 assessed as parasite growth inhibition incubated for 72 hrs by resazurin staining based assay
Assay type: functional, organism-based
Settings: Lister 427, 72 h
Some molecules, each annotated with its measured pIC50.
The scale used: pIC50 is minus the common logarithm of the concentration in molar units.

Recorded results for 5 molecules are shown here.
CC[C@H](C)[C@@H]1NC(=O)[C@@H](Cc2c[nH]c3ccccc23)n2c1nc1ccc(Br)cc1c2=O: 5.28
CC[C@H](C)[C@@H]1NC(=O)[C@@H](Cc2c[nH]c3ccccc23)n2c1nc1cc(Cl)c(Cl)cc1c2=O: 5.24
CC(C)C[C@@H]1NC(=O)[C@@H](Cc2c[nH]c3ccccc23)n2c1nc1cc(Cl)c(Cl)cc1c2=O: 5.23
CC(C)[C@H]1NC(=O)[C@@H](Cc2c[nH]c3ccccc23)n2c1nc1ccccc1c2=O: 5.15
CC(C)[C@@H]1NC(=O)[C@H](Cc2c[nH]c3ccccc23)n2c1nc1ccccc1c2=O: 5.34

Task: State the recorded pIC50 for this entry: CC(C)C[C@@H]1NC(=O)[C@@H](Cc2c[nH]c3ccccc23)n2c1nc1ccc(I)cc1c2=O
Result: 5.39

Task: I'd like to know its pIC50. The molecule in question is CC(C)C[C@H]1NC(=O)[C@@H](Cc2c[nH]c3ccccc23)n2c1nc1ccccc1c2=O
Result: 6.42

Task: For the molecule O=C1N[C@H](Cc2ccc(OCc3ccccc3)cc2)c2nc3ccccc3c(=O)n2[C@H]1Cc1c[nH]c2ccccc12 , what pIC50 is on record?
Result: 5.80

Task: Returns the measured pIC50 for the input molecule. Input: CC(C)C[C@@H]1NC(=O)[C@@H](Cc2c[nH]c3ccccc23)n2c1nc1ccc(O)cc1c2=O
Result: 5.07

Task: Return reported pIC50; argument: O=C1N[C@@H](Cc2ccc(OCc3ccccc3)cc2)c2nc3cc(Cl)c(Cl)cc3c(=O)n2[C@@H]1Cc1c[nH]c2ccccc12
Result: 5.41

* * *

Recorded selectivity ratio for the following compounds
Experiment: Selectivity index, ratio of CC50 for cytotoxicity against human THP-1 cells to IC50 for antitrypanosomal activity against bloodstream form of Trypanosoma brucei Lister 427
Assay type: toxicity, cell-based
Conditions: read-out: Ratio CC50/IC50
Returns: the value as a bare number; no unit string appended.

Guide cases for selectivity ratio, answers given:
CC[C@H](C)[C@@H]1NC(=O)[C@@H](Cc2c[nH]c3ccccc23)n2c1nc1cc(Cl)c(Cl)cc1c2=O: 8.6
CC(C)C[C@@H]1NC(=O)[C@@H](Cc2c[nH]c3ccccc23)n2c1nc1cc(Cl)c(Cl)cc1c2=O: 4.2
CC(C)C[C@H]1NC(=O)[C@@H](Cc2c[nH]c3ccccc23)n2c1nc1ccccc1c2=O: 65.7

Task: Which value of selectivity ratio has been reported for CC[C@H](C)[C@@H]1NC(=O)[C@@H](Cc2c[nH]c3ccccc23)n2c1nc1ccc(Br)cc1c2=O in the records?
Result: 9.4

* * *

Assay: Cytotoxicity against Chinese hamster V79 cells measured after 24 hrs by MTT assay
Format: cell-based, Cricetulus griseus
Details: V79 cells, read-out: LD50
property: CC50 at 24 h

// worked examples, CC50 at 24 h included
CC(C)[C@@H]1NC(=O)[C@@H](Cc2c[nH]c3ccccc23)n2c1nc1ccccc1c2=O: 1.91 µM
CC(C)C[C@@H]1NC(=O)[C@@H](Cc2c[nH]c3ccccc23)n2c1nc1ccccc1c2=O: 1.78 µM

Now take the following compound into account.
Task: Recorded CC50 at 24 h for CC(C)C[C@@H]1NC(=O)[C@@H](Cc2c[nH]c3ccccc23)n2c1nc1cc(Cl)c(Cl)cc1c2=O , please?
Result: 14 µM

* * *

Tested on: Leishmania infantum
Experiment: Antileishmanial activity against axenic amastigote stage of Leishmania infantum infected in THP-1 cells assessed as reduction in parasite growth incubated for 72 hrs by luminescence analysis
Format: functional, organism-based
Settings: THP-1, 72 h
# IC50 values compiled below
Your answer should be a plain number; it is taken to be in µM.

Worked cases, answers included:
CC(C)C[C@H]1NC(=O)[C@@H](Cc2c[nH]c3ccccc23)n2c1nc1ccccc1c2=O: 2.6
CC(C)C[C@@H]1NC(=O)[C@@H](Cc2c[nH]c3ccccc23)n2c1nc1ccc(I)cc1c2=O: 7.4
CC[C@H](C)[C@@H]1NC(=O)[C@@H](Cc2c[nH]c3ccccc23)n2c1nc1ccc(Br)cc1c2=O: 7.8

Shift focus to the following entry.
Task: Quick check: IC50 of CCCCCCCCCCCCCCCCOP(=O)([O-])OCC[N+](C)(C)C ?
Result: 1

* * *

Assay: Cytotoxicity against human THP-1 cells assessed as reduction in cell viability measured after 72 hrs by MTT assay
Type: cell-based
property: CC50 at 72 h

Worked cases, CC50 at 72 h given:
CC(C)C[C@@H]1NC(=O)[C@H](Cc2c[nH]c3ccccc23)n2c1nc1ccccc1c2=O: 50 µM
N=C(N)c1ccc(OCCCCCOc2ccc(C(=N)N)cc2)cc1: > 10 µM
CC(C)C[C@@H]1NC(=O)[C@@H](Cc2c[nH]c3ccccc23)n2c1nc1ncccc1c2=O: > 100 µM
CC(C)C[C@@H]1NC(=O)[C@@H](Cc2c[nH]c3ccccc23)n2c1nc1ccc(I)cc1c2=O: 50 µM
CC(C)C[C@@H]1NC(=O)[C@@H](Cc2c[nH]c3ccccc23)n2c1nc1cnccc1c2=O: > 100 µM
CC(C)C[C@@H]1NC(=O)[C@@H](Cc2c[nH]c3ccccc23)n2c1nc1cc(-c3nnnn3C)ccc1c2=O: > 50 µM
CC[C@H](C)[C@@H]1NC(=O)[C@@H](Cc2c[nH]c3ccccc23)n2c1nc1cc(Cl)c(Cl)cc1c2=O: 50 µM

Kindly consider the entry below.
Task: Looking for the measured CC50 at 72 h of CC(C)[C@@H]1NC(=O)[C@@H](Cc2c[nH]c3ccccc23)n2c1nc1ccccc1c2=O , can you help?
Result: > 100 µM

* * *

Examples of compounds with documented selectivity ratio follow.
Assay: Selectivity index, ratio of CC50 for cytotoxicity against human THP-1 cells to IC50 for antileishmanial activity against axenic amastigote stage of Leishmania infantum infected in THP-1 cells
Type: toxicity, cell-based
Details: read-out: Ratio CC50/IC50
Lab note: jot down the number only; don't add units.

Task: If you can, please state the reported selectivity ratio value of CC(C)C[C@@H]1NC(=O)[C@@H](Cc2c[nH]c3ccccc23)n2c1nc1ccc(I)cc1c2=O .
Result: 6.7

Task: Consider the compound shown here: CC[C@H](C)[C@@H]1NC(=O)[C@@H](Cc2c[nH]c3ccccc23)n2c1nc1ccc(Br)cc1c2=O What is its recorded selectivity ratio?
Result: 6.4

Task: Tell me the measured selectivity ratio of CCCCCCCCCCCCCCCCOP(=O)([O-])OCC[N+](C)(C)C , please.
Result: 28.8

Task: Form field: reported selectivity ratio of CC(C)C[C@H]1NC(=O)[C@@H](Cc2c[nH]c3ccccc23)n2c1nc1ccccc1c2=O
Result: 9.6
